Numbers sourced from patent US20190092846A1.

Tgt: T1, human TGF-β3 (human, UniProt P10600 301-412)
T1 construct: also called hTGF-b3; hTGFbeta-3
T1 sequence: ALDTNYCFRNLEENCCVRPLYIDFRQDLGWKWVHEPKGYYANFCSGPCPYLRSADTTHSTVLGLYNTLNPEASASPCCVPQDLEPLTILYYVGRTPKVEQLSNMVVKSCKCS
Experiment Description: BiaCORE (surface plasmon resonance)
Test Readout: Kd (nM)
Your answer should be a plain number; it is taken to be in nM.

Output measured Kd for this item: 1D11 (antibody, V domains shown) VH: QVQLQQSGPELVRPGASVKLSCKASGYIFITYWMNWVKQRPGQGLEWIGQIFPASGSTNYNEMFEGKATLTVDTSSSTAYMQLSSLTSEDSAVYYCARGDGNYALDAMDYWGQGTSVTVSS VL: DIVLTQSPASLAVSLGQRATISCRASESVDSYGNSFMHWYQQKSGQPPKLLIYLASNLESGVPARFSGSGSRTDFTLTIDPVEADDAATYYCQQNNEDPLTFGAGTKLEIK
0.02
